Provide the recorded Transfection 10 ng mRNA for the entries that follow.
- Test system: HeLa cells
- measurement_notes: Transfection efficiency with Luciferase (SecNLuc) mRNA, Nano-Glo assay (Method A)
- Type: cell-based
- condition_set: Luc mRNA, 10 ng mRNA/well, 24 h, luminescence
Answers are plain numbers.

Consider the worked cases shown below.
molecule	Transfection 10 ng mRNA
CCCCCCCC/C=C\CCCCCCCC(OCC(CCCCCCCC)SCCCCC)O[Si](C)(C)OCCCCCCN(CCO)CCO (stereo not drawn) [Example 72]	2.05E+03
CCCCC/C=C\C/C=C\CCCCCCCCO[Si](C)(C)OC(CCCCCCC/C=C\CCCCCCCC)OCCCN(C)C (stereo not drawn) [Example 81]	1.57E+02
CCCCCCCC/C=C\CCCCCCCC(OCC(CCCCCCCC)SCCCCCCCCCC)O[Si](C)(C)OCCCCCCN(CCO)CCO (stereo not drawn) [Example 73]	6.90E+01
CCCCC/C=C\C/C=C\CCCCCCCCOC(CCCCCCC/C=C\C/C=C\CCCCC)O[Si](C)(C)OCCCCCCN1CCCCC1 (stereo not drawn) [Example 57]	9.82E+04

For each entry beneath this line, provide reported Transfection 10 ng mRNA.
1. CCCCC/C=C\C/C=C\CCCCCCCCOC(CCCCCCC/C=C\C/C=C\CCCCC)O[Si](C)(C)OCCCCCCN1CCN(CCCCCCO[Si](C)(C)OC(CCCCCCC/C=C\C/C=C\CCCCC)OCCCCCCCC/C=C\C/C=C\CCCCC)CC1 (stereo not drawn) [Example 70]
2. CCCCCCCC/C=C\CCCCCCCCOC(=O)C(C)(C)CC(OCCCCCCCC/C=C\CCCCCCCC)O[Si](C)(C)OCCCCCCN(CCCO)CCCO (stereo not drawn) [Example 88]

**Result**
1: 6.46E+02; 2: 6.30E+03
